Can you tell me GI50 for the items I'm about to list?
# Tested on: SN12C
# assay_summary: NCI tumour cell line growth inhibition, 48 h
Activity calls are given as the source filed them. Rule as the data show it: active = GI50 up to about 1.1 µM and inactive = higher.

# GI50 of Cn1c2cccc3nnc4cccc(c4c32)n1C = > 100 µM (inactive)

Record CC(=O)O[C@H]1[C@H](O[C@H]2CC[C@]34C[C@]35CC[C@]3(C)[C@@H]([C@@]6(C)CC[C@@H](C(C)(C)O)O6)[C@@H](O)C[C@@]3(C)[C@@H]5C[C@H](O[C@@H]3O[C@H](CO)[C@@H](O)[C@H](O)[C@H]3O)[C@H]4C2(C)C)OC[C@@H](O)[C@@H]1O . Reported GI50: > 100 µM (inactive)

So, N#CC12CC(C=O)=C(N)C1(C#N)CC(C=O)=C2N (stereo not drawn) ? Its GI50 was 74.6 µM (inactive)

# GI50 (compound: Cc1ccc2c(c1)SC1=Nc3sc4cc(C)ccc4[n+]3CN12 ) is 7.16 µM (inactive)

The recorded GI50 for entry C=C1CCC2C(C)(CO)C(O)CCC2(C)C1CC(O)/C(=C/CO)C(=O)O (stereo not drawn) equals > 100 µM (inactive)

Sample Cc1nc(N)c(N2CCN(S(=O)(=O)N(Cc3ccccc3)Cc3ccccc3)CC2)c(O)n1 ; GI50 observed: 32.7 µM (inactive)

Noted for CC1=CC[C@H](C[C@H](C#CCCCC2OCCO2)O[Si](C(C)C)(C(C)C)C(C)C)C(=O)CC1 : its GI50 reads > 100 µM (inactive)

Per the record, CC(=O)NC(C)c1ccc(/N=N/N2CCCC2)cc1 (stereo not drawn) has GI50 of > 100 µM (inactive)

###

# Tested on: UACC-62
# assay_summary: NCI tumour cell line growth inhibition, 48 h
Calls of active or inactive are those of the source. No stated cut-off is given here; in the data, active = GI50 up to about 1.1 µM and inactive = higher.
Valid outcomes are listed here; reply with one: true (active), false (inactive)

query: // outcome(item) with item = CCOC(=O)C(=O)Nc1ccc(C)cc1C
result: false

query: For CC(=O)NC1=C(Sc2ccc(Cl)cc2)C(=O)c2ccccc2C1=O , which call appears in the assay record?
result: false

query: Returns: the outcome recorded for O=C(N/N=C1/C(=O)c2c3ccccc3cc3cccc1c23)c1ccccc1 in this assay.
result: false

query: Hello, I am checking results. What call was entered for O=C(NC(Nc1ccc(F)cc1)(C(F)(F)F)C(F)(F)F)C(C(F)(F)F)C(F)(F)F ?
result: true

query: Which outcome was entered for the compound NC(=O)c1ncn(CCN2CCN(C(=O)NCCCCCCNC(=O)N3CCN(CCn4cnc(C(N)=O)c4N)CC3)CC2)c1N in this test?
result: false

query: Field: outcome | Entry: CN1CCC(SC2Cc3cc(Cl)ccc3Sc3ccccc32)CC1 (stereo not given)
result: false

query: Write down the call the test reported for this compound. Item: COc1ccc(/N=C2\C(=N/c3ccc(OC)cc3)N(S(=O)(=O)c3ccccc3)C(=S)N2c2ccccc2)cc1
result: false

query: Dear colleague, could you share the recorded outcome for CCOC(=O)/C=C(\C(=O)OCC)n1ccc(=O)[nH]c1=O when you have a moment?
result: false

query: Tell me the assay call for CSc1nc(Cl)c2c(n1)Sc1nc3ccccc3n1C2O (stereo not given) please.
result: false

query: Identify the outcome logged in this assay for the compound shown: O=c1[nH][nH]c(=O)n1Cc1ccccc1Cn1c(=O)[nH][nH]c1=O
result: false

###

# Test system: CAKI-1
# assay_summary: NCI tumour cell line growth inhibition, 48 h
Active and inactive are the calls of the source. Rule as the data show it: active = GI50 up to about 1.1 µM and inactive = higher. Where a SMILES comes first, the peptide text is derived from it. The star is where a group is joined. Boc = CC(C)(C)OC(=O)*
Exercise: state measured GI50 for each of the compounds provided.

Lab entry: CAKI-1 assay, compound COC(=O)C1C2CC3C(OC(=O)C31)C2OC(=O)[C@](OC)(c1ccccc1)C(F)(F)F (stereo partly drawn) , GI50 = > 100 µM (inactive)

The observed GI50 for CCc1n[nH]c(=O)n1/N=C(\C)c1ccc([N+](=O)[O-])cc1 when tested with CAKI-1 stands at > 100 µM (inactive)

Reading of GI50 for O=c1c2ccc3cccc4c(=O)cc(c5ccccc15)-c2c34 with CAKI-1: > 100 µM (inactive)

The reported CAKI-1 GI50 of N#CCc1cccc(CC#N)c1Br is > 100 µM (inactive)

Reported GI50 (CAKI-1) for entry Cc1cc2cc3c(cc2c(-c2ccc(N)cc2)n1)OCO3 is 26.5 µM (inactive)

Hey, CAKI-1 data for O=c1cc(/N=N/c2ccc(O)cc2)[nH]c(=O)[nH]1 : GI50 came out at > 100 µM (inactive)

CAKI-1 GI50 of C/C(=N\Nc1nnc(S)n1N)c1c(O)cc(C)oc1=O is > 100 µM (inactive)

I looked up O=C(Nc1ccccc1-c1nn(CN2CCNCC2)c(=S)n(CN2CCNCC2)c1=O)C(F)(F)F and its GI50 for CAKI-1 was 23.9 µM (inactive)

GI50 of [N-]=[N+]=CC(=O)C1CCCN1C(=O)c1ccccc1 (stereo not drawn) , assay on CAKI-1, is > 10 µM (inactive)

Form field GI50 for item Nc1c(C(=O)c2ccccc2)[nH]c(NCc2ccccc2)c1C(=S)Nc1ccccc1 on CAKI-1: > 100 µM (inactive)

The recorded GI50 with CAKI-1 for CCCCCCCCCCCCCCCCCCOCC(O)COP(=O)(O)OCC1OC(n2cc(F)c(=O)[nH]c2=O)CC1O (stereo not drawn) was 2.16 µM (inactive)

// GI50 (CAKI-1) for CCCC1C(=O)C(CC)Cc2c(OC)ccc(OC)c21 (stereo not drawn) = > 100 µM (inactive)

Sample CCOc1cc(C=O)c2c(ccc3ccc(OC)c(OC)c32)c1OC , system: CAKI-1. Its GI50 is 93.5 µM (inactive)

CC12O[Te]34OC1(C)C(C)(O3)C2(C)O4 tested on CAKI-1 gave GI50: 9.71 µM (inactive)

Form field, GI50 with CAKI-1, item c1ccc2c(c1)SC(=C1Sc3ccccc3S1)S2 : > 100 µM (inactive)

Field GI50 (CAKI-1), entry Cc1cccc2c1C(=O)C(C1OC(=O)c3ccccc31)C2 (stereo not drawn) : > 100 µM (inactive)

Lab note: compound COc1ccc2c3c1OC1C34CCN(C)C(C2)C4=CC(I)C1(OC)OC (stereo not drawn) tested on CAKI-1; recorded GI50 was 12.9 µM (inactive)

Given the compound N#CC(C#N)=C/C=C(\Sc1c(Cl)c(Cl)nc(Cl)c1Cl)c1ccc(Cl)cc1 and test system CAKI-1, the measured GI50 is 14.5 µM (inactive)

For C=C(CCOC)CCC1CCCCC(=C)[C@H]1OC(C)=O (stereo partly drawn) on CAKI-1, measured GI50 was > 100 µM (inactive)

Item CCCN(CCC)C(=O)C(=O)c1c(N)[nH]n(-c2ccccc2)c1=O was tested on CAKI-1; the reported GI50 is > 100 µM (inactive)

// assay CAKI-1, entry CC(C)(Cl)C(Cl)CC/C(CBr)=C(\Cl)CBr (stereo not drawn) , GI50 value = 2.62 µM (inactive)

Form field, GI50 with CAKI-1, item O=C(O)CCC(NC(=O)c1ccccc1)C(=O)O (stereo not drawn) : > 100 µM (inactive)

GI50 on CAKI-1 for C=CCC1(OC(C)=O)C2OC(=O)C1(O)OCC2O (stereo not drawn) is > 100 µM (inactive)

# value of GI50, CAKI-1, item O=C(N/N=C1/C(=O)c2c3ccccc3cc3cccc1c23)c1ccccc1 = 26.4 µM (inactive)

Value sought: GI50, system CAKI-1, item CCN(CC)CC(=O)N1CCc2c([nH]c3ccccc23)C1c1cccnc1 (stereo not drawn) . Result: > 100 µM (inactive)

So the reported GI50 for CCOC(=O)c1cnc2c(ccc3ncccc32)c1NCCCN(CC)CC , on CAKI-1, turned out to be > 100 µM (inactive)

Given the compound O=C(CSc1nc2ccc(I)cc2c(=O)n1Cc1ccccc1)N/N=C/c1ccccc1 and test system CAKI-1, the measured GI50 is 4.01 µM (inactive)

Noted GI50 for Cc1cc(-c2nc3ccccc3s2)ccc1NC(=O)[C@H](C)N , tested on CAKI-1: 11.3 µM (inactive)

Noted GI50 for CC1=C(C(=O)Nc2ccccc2)C(c2ccccc2Cl)C(C(=O)Nc2ccccc2)=C(C)N1 , tested on CAKI-1: 27.9 µM (inactive)

Entry COc1cc(C)c2c(c1)CN1CN2Cc2cc(OC)cc(C)c21 ; assay system CAKI-1; GI50 recorded at > 100 µM (inactive)

Hey, CAKI-1 data for COc1cccc(-n2c3nc(=O)n(C)c(=O)c-3nc3ccccc32)c1 : GI50 came out at 16.2 µM (inactive)

For C=CCN1C(=O)CC2[C@@H]3CCc4cc(O)ccc4C3CC[C@]2(C)C1=O (stereo partly drawn) on CAKI-1, measured GI50 was > 10 µM (inactive)

Here CSCCC(NC(=O)C(CC(C)C)NC(=O)C1CCCN1C(=O)C(Cc1ccccc1)NC(=O)C(Cc1ccccc1)NC(=O)C(CCC(=O)O)NC(=O)OC(C)(C)C)C(N)=O (stereo not drawn) (Boc-EFFPLM-NH2; configuration not given here) was tested on CAKI-1, and its GI50 came to > 100 µM (inactive)

Measured GI50 for this entry CC(C)(C)C1CCC2c3c([nH]c4ccccc34)C3C(=O)N(c4ccccc4Cl)C(=O)C3C2C1 (stereo not drawn) on CAKI-1: 9.12 µM (inactive)

Let me check: Cc1cccc(C)c1NC(=O)C1=NC(=S)NC(c2ccccc2)C1c1nc2ccccc2s1 (stereo not drawn) , system CAKI-1, measured GI50 is > 100 µM (inactive)

Tested on CAKI-1, the item O=C1NN(Cc2ccccc2)C(=O)N2CCC[C@@H]12 showed GI50 equal to > 100 µM (inactive)

Simply: C(CCc1nnc2c(n1)CCCC2)Cc1nnc2c(n1)CCCC2 , CAKI-1, GI50 = > 100 µM (inactive)

Summary: CC/C(C)=C1\CCC(CN2CCOCC2)C1=O (stereo not drawn) , CAKI-1, GI50 = 2.47 µM (inactive)

The observed GI50 for O=c1[nH]c(=O)n(COCc2ccccc2)cc1Nc1ccc(Br)cc1 when tested with CAKI-1 stands at > 100 µM (inactive)

Recorded GI50 for Cc1occc1C(=S)Nc1ccc(Cl)c(C(=O)OC(C(C)C)C(C)C)c1 on CAKI-1 was 17.1 µM (inactive)

Considering O=C1c2cc(-c3ccccc3)cnc2S(=O)(=O)N1c1ccc(Br)cc1 , its GI50 with CAKI-1 was recorded as 40.4 µM (inactive)

Noted GI50 for O=Cc1cc(O)c(O)c(/C=N/n2c3ccccc3c3ccccc32)c1 , tested on CAKI-1: 16.1 µM (inactive)

Given the compound Oc1ccc(O)c(Sc2nnc(CCCCCCCCc3nnc(Sc4cc(O)ccc4O)o3)o2)c1 and test system CAKI-1, the measured GI50 is 28.8 µM (inactive)
